- System: T-47D breast
- protocol: NCI tumour cell line growth inhibition, 48 h
Measured TGI, listed per entry.
Give just the numeric value; µM need not be written.

CC(C)C[C@H](NC(=O)/C=C/Cn1ccc2ccccc2c1=O)B(O)O: 15.3

# input for lookup
**Query** Fill in the blank: the reported TGI of CCC/C(Cl)=N\OC(=O)Nc1ccc(OC(F)(F)F)cc1 is ____.
**Result** 7.65

* * *

Measured GI50, listed per entry.
- Tested on: HOP-62 NSCLC
- protocol: NCI tumour cell line growth inhibition, 48 h

Example results:
O=S(=O)(Nc1cc(Sc2cccc3cccnc23)c(O)c2ccccc12)c1ccccc1: 1.01 µM
Cc1[nH]c2ccccc2c(=O)c1CC=C(Cl)Cl: 24.1 µM

# input for lookup
**Query** Fill in the blank: the reported GI50 of CN(C)C(=O)[C@H](O)[C@H](Cc1ccccc1)NC(=O)c1cc2cc(Cl)ccc2[nH]1 is ____.
**Result** 22.6 µM
